- Test system: 624824-186-R-J3-PDC multicell spheroids, viability
- Procedure text: Anticancer human tumor 624824-186-R-J3-PDC patient-derived colon adenocarcinoma cell line growth inhibition [PI3K]
- Applied conditions: second compound 0.1 µM; first compound 0.1 µM; active compounds read low
- Text: Combinatorial screen of targeted agents with the PI3K inhibitors inavolisib, alpelisib, duvelisib, and copanlisib in multi-cell type tumor spheroids A high-throughput screen of multi-cell type tumor spheroids was designed to identify active combinations of targeted small molecules and PI3K pathway inhibitors. […] Compounds. […] If the clinical Cmax for an agent had not been determined, the highest concentration tested was 10 microM. […]
Define the label as rule met when viability, T/C is strictly less than 90% and as rule not met in all remaining cases.

Completed entries (count: 5):
Compound: CNC(=O)c1ccc(N2C(=S)N(c3ccc(C#N)c(C(F)(F)F)c3)C(=O)C2(C)C)cc1F + COc1c(OCCCN2CCOCC2)ccc2c3n(c(=NC(=O)c4cnc(N)nc4)nc12)CCN3
Class name: rule met
--
Compound: Cn1nccc1Nc1nccc(-c2ccn(C(CO)c3ccc(Cl)c(F)c3)c(=O)c2)n1 (stereo not given) + COc1c(OCCCN2CCOCC2)ccc2c3n(c(=NC(=O)c4cnc(N)nc4)nc12)CCN3
Class name: rule met
--
Compound: Cn1ncc(Cl)c1-c1cc(C(=O)NC(CN)Cc2cccc(F)c2)sc1Cl (stereo not given) + CC(Nc1ncnc2nc[nH]c12)c1cc2cccc(Cl)c2c(=O)n1-c1ccccc1
Class name: rule not met
--
Compound: CC1(C)CCC(Nc2ncc(C(F)(F)F)c(-c3c[nH]c4c(P(C)(C)=O)c(C#N)ccc34)n2)CN1 (stereo not given) + CC(Nc1ccc2c(c1)OCCn1cc(N3C(=O)OCC3C(F)F)nc1-2)C(N)=O
Class name: rule met
--
Compound: CC1(C)CCC(CN2CCN(c3ccc(C(=O)NS(=O)(=O)c4ccc(NCC5CCOCC5)c([N+](=O)[O-])c4)c(Oc4cnc5[nH]ccc5c4)c3)CC2)=C(c2ccc(Cl)cc2)C1 + CC(Nc1ccc2c(c1)OCCn1cc(N3C(=O)OCC3C(F)F)nc1-2)C(N)=O
Class name: rule not met

Q: Input C=CC(=O)N1CCN(c2nc(=O)n(-c3c(C)ccnc3C(C)C)c3nc(-c4c(O)cccc4F)c(F)cc23)C(C)C1 (stereo not given) + CC(Nc1ccc2c(c1)OCCn1cc(N3C(=O)OCC3C(F)F)nc1-2)C(N)=O ; condition: viability, T/C strictly below 90%. Does it hold?
Result: rule not met

Q: Quick check: viability, T/C of CC(Cn1ccc(-c2ccc(C#N)c(Cl)c2)n1)NC(=O)c1cc(C(C)O)[nH]n1 (stereo not given) + CC(Nc1ncnc2nc[nH]c12)c1cc2cccc(Cl)c2c(=O)n1-c1ccccc1 under 90%?
Result: rule not met

Q: Decide: viability, T/C of CC(=O)c1c(C)c2cnc(Nc3ccc(N4CCNCC4)cn3)nc2n(C2CCCC2)c1=O + COc1c(OCCCN2CCOCC2)ccc2c3n(c(=NC(=O)c4cnc(N)nc4)nc12)CCN3 strictly below 90%?
Result: rule met

---

viability, T/C by entry:
- System: 624824-186-R-J3-PDC multicell spheroids, viability
- Procedure text: Anticancer human tumor 624824-186-R-J3-PDC cell line growth inhibition [PI3K];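 also: luminescent signal used as a stand-in for spheroid viability; spheroids exposed to agents for seven days before luminescence read; percent viability relative to DMSO vehicle control wells taken as 100%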
- Applied conditions: second compound 1 µM; first compound 0.1 µM; active compounds read low
- Source text: Combinatorial screen of targeted agents with the PI3K inhibitors inavolisib, alpelisib, duvelisib, and copanlisib in multi-cell type tumor spheroids A high-throughput screen of multi-cell type tumor spheroids was designed to identify active combinations of targeted small molecules and PI3K pathway inhibitors. […] Compounds. […] If the clinical Cmax for an agent had not been determined, the highest concentration tested was 10 microM. […]
State just the number; it will be interpreted in %.

Examples with answers:
Compound: CNC(=O)c1ccc(N2C(=S)N(c3ccc(C#N)c(C(F)(F)F)c3)C(=O)C2(C)C)cc1F + CC(Nc1ccc2c(c1)OCCn1cc(N3C(=O)OCC3C(F)F)nc1-2)C(N)=O
Assay metric: viability, T/C
Quantitative readout: 89.2

Compound: Cn1nccc1Nc1nccc(-c2ccn(C(CO)c3ccc(Cl)c(F)c3)c(=O)c2)n1 (stereo not drawn) + CC(Nc1ccc2c(c1)OCCn1cc(N3C(=O)OCC3C(F)F)nc1-2)C(N)=O
Assay metric: viability, T/C
Quantitative readout: 81.1

// switching to the query compound
Q: State the recorded viability, T/C for this entry: CC(C)NCC(C(=O)N1CCN(c2ncnc3c2C(C)CC3O)CC1)c1ccc(Cl)cc1 (stereo not drawn) + CC(Nc1ncnc2nc[nH]c12)c1cc2cccc(Cl)c2c(=O)n1-c1ccccc1
Result: 110
